Values compiled from ChEMBL document CHEMBL5291721.

// values below are AC50; system is Melanocortin receptor 4 (Homo sapiens, UniProt P32245); further: assay procedure not described here
Sequence (P32245 whole entry): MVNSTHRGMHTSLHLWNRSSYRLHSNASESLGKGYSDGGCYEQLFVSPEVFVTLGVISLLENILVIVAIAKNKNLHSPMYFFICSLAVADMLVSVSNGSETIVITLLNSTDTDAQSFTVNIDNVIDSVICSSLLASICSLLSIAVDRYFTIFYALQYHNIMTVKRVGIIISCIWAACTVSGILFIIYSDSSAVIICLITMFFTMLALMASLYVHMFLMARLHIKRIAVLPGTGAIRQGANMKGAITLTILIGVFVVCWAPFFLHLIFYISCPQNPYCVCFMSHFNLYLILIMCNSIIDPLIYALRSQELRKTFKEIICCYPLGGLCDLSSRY

Problem: Supply AC50 value. Item: C=C1C[C@@H]2[C@H](CC[C@]3(C)C(=O)CC[C@@H]23)[C@@]2(C)C=CC(=O)C=C12 [EXEMESTANE]
Solution: > 30 µM

Problem: Supply AC50 value. Item: CC(C)NCC(O)COc1ccc(COCCOC(C)C)cc1 (stereo not drawn) [BISOPROLOL]
Solution: > 30 µM

Problem: Supply AC50 value. Item: COC(=O)C1=C(C)NC(C)=C(C(=O)OC(C)C)C1c1cccc2nonc12 (stereo not drawn) [ISRADIPINE]
Solution: > 30 µM

Problem: Supply AC50 value. Item: C[C@H]1O[C@H](O[C@H]2[C@H](O)[C@@H](O)[C@@H](O[C@H]3[C@H](O)[C@@H](O)C(O)O[C@@H]3CO)O[C@@H]2CO)[C@H](O)[C@@H](O)[C@@H]1N[C@H]1C=C(CO)[C@@H](O)[C@H](O)[C@H]1O (stereo partly drawn) [ACARBOSE]
Solution: > 30 µM

Problem: Supply AC50 value. Item: Cc1ccc(-c2nc3ccc(C)cn3c2CC(=O)N(C)C)cc1 [ZOLPIDEM]
Solution: > 30 µM

Problem: Supply AC50 value. Item: CC(C(=O)O)c1ccc(N2CC=CC2)c(Cl)c1 (stereo not drawn) [PIRPROFEN]
Solution: > 30 µM

Problem: Supply AC50 value. Item: O=C(CCCCC(=O)Nc1c(I)cc(I)c(C(=O)O)c1I)Nc1c(I)cc(I)c(C(=O)O)c1I [IODIPAMIDE]
Solution: > 10 µM

Problem: Supply AC50 value. Item: C#C[C@]1(O)CC[C@H]2[C@@H]3CCc4cc(O)ccc4[C@H]3CC[C@@]21C [ETHINYL ESTRADIOL]
Solution: > 30 µM

Problem: Supply AC50 value. Item: CCN1CCC[C@H]1CNC(=O)c1cc(S(N)(=O)=O)ccc1OC [LEVOSULPIRIDE]
Solution: > 30 µM

Problem: Supply AC50 value. Item: CN(C/C=C/c1ccccc1)Cc1cccc2ccccc12 [NAFTIFINE]
Solution: > 30 µM

Problem: Supply AC50 value. Item: CN1CCc2cccc3c2[C@H]1Cc1ccc(O)c(O)c1-3 [APOMORPHINE]
Solution: > 30 µM

Problem: Supply AC50 value. Item: CN1C(=O)CC(c2ccccc2)C1=O (stereo not drawn) [PHENSUXIMIDE]
Solution: > 10 µM

Problem: Supply AC50 value. Item: CN(C)C(=O)OC1N=C(c2ccccc2)c2cc(Cl)ccc2N(C)C1=O (stereo not drawn) [CAMAZEPAM]
Solution: > 30 µM

Problem: Supply AC50 value. Item: NC[C@H]1CC[C@H](C(=O)O)CC1 [TRANEXAMIC ACID]
Solution: > 10 µM

Problem: Supply AC50 value. Item: COc1ccc2cccc(CCNC(C)=O)c2c1 [AGOMELATINE]
Solution: > 30 µM

Problem: Supply AC50 value. Item: CCc1nn(CCCN2CCN(c3cccc(Cl)c3)CC2)c(=O)n1CCOc1ccccc1 [NEFAZODONE]
Solution: > 30 µM

Problem: Supply AC50 value. Item: CC(C)(C(=O)c1cccnc1)c1cccnc1 [METYRAPONE]
Solution: > 10 µM

Problem: Supply AC50 value. Item: NC(CO)C(=O)NNCc1ccc(O)c(O)c1O (stereo not drawn) [BENSERAZIDE]
Solution: > 30 µM
